procedure summary: inhibitors of mutant huntingtin aggregation, primary screen, imaging, exon1htt(103Q)mCFP cells, high-content imaging (AID 483);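 also: compound exposure lasted 3 days before fixation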
assay setup: exon1htt(103Q)mCFP cell line, aggregate imaging, at 2 µM; stronger effect = higher value
Calls of active or inactive are those of the source.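 The calls were made as follows: active = visual image review flags a hit and inhibition of aggregation exceeds 20%; inconclusive = visual hit but inhibition at or below 20%; inactive = no hit on visual image review.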 Where a SMILES comes first, the peptide text is derived from it. The star is where a group is joined. Boc = CC(C)(C)OC(=O)*
Recorded inhibition of aggregation for the following compounds

# compound, inhibition of aggregation
data = [
    ("Cc1cccc(NC(=O)c2cc(NC(=O)c3ccco3)ccc2Cl)n1", "16.4% (inactive)"),
    ("COCCn1c(SCC(=O)Nc2sc(C)c(C)c2C#N)nnc1C(C)C", "25.9% (inactive)"),
    ("COCCNC(=O)CN1CCN(C(c2ccccc2)c2ccccc2)CC1", "18.2% (inactive)"),
    ("Cc1cccc2cc(CN(CC3CCCO3)C(=O)c3cnccn3)c(=O)[nH]c12 (centres undefined)", "5.3% (inactive)"),
    ("CCN=C1SC(CC(=O)Nc2ccccc2)C(=O)N1CC (centres undefined)", "26.6% (inactive)"),
    ("Cc1cc(C)nc(SCC(=O)Nc2ncc3c(n2)CCCC3=O)n1", "10.1% (inactive)"),
    ("COCCCN1C(=O)C(=O)/C(=C(/O)c2ccc(OCC(C)C)cc2C)C1c1cccnc1 (centres undefined)", "-8.7% (inactive)"),
    ("COc1ccc(N2CCN(Cc3nc4ccccc4c(=O)[nH]3)CC2)cc1", "-13.4% (inactive)"),
    ("CC(C)N1C(=O)C2C(C(=O)NC3CCCCC3)C3C=CC2(O3)C1C(=O)NC1CCCC1 (centres undefined)", "23% (inactive)"),
    ("COc1ccc(Cl)cc1N1CC(c2nc3ccccc3[nH]2)CC1=O (centres undefined)", "2% (inactive)"),
    ("O=C(CNC(=O)c1cc2ccccc2o1)NCc1cccs1", "-2.1% (inactive)"),
    ("CC(C)OC(=O)CSc1nnc(-c2ccccn2)n1-c1ccccc1", "-8.2% (inactive)"),
    ("COc1cc(NC(=O)CN(c2cc(C)cc(C)c2)S(=O)(=O)c2c(C)noc2C)cc(OC)c1", "-25% (inactive)"),
    ("O=C(NC1CC1)C1CCN(c2ccc(S(=O)(=O)N3CCOCC3)cc2)CC1", "-4.3% (inactive)"),
    ("Cc1nnc(SCC(=O)Nc2nccs2)s1", "12.1% (inactive)"),
    ("CCn1c(NC(=O)c2cccc(Cn3cc(Cl)cn3)c2)nc2ccccc21", "13.3% (inactive)"),
    ("CCC(C)C(NC(=O)OC(C)(C)C)C(=O)NC(CC(C)C)C(N)=O (stereo not drawn) (Boc-Ile-Leu-NH2; configuration not given here)", "7.1% (inactive)"),
    ("CCOc1ccccc1C(=O)NC(C)c1ccc2c(c1)OCO2 (centres undefined)", "0.3% (inactive)"),
    ("O=C(CSc1ncnc2c1cnn2Cc1ccccc1)Nc1ccc2c(c1)OCCO2", "27.1% (inactive)"),
]

* * *

procedure summary: DUSP6 inhibitors restoring Erk phosphorylation by chemical complementation, primary imaging in DUSP6-transfected HeLa (AID 609)
assay setup: HeLa MKP-3 transfected, phospho-Erk imaging KS statistic; measured here: nuclear c-Myc green intensity z-score; at 10 µM; cells stimulated with TPA for 15 min
Quick rule for you: z-score at 0.05 or higher means condition met, lower means condition not met.

# molecule, cat
data = [
    ("Cc1c(=O)n(OCc2c(F)cccc2F)c2ccccc2[n+]1[O-]", "condition not met"),
    ("COc1ccc(/C(O)=C2\\C(=O)C(=O)N(CCN(C)C)C2c2cccc(OC)c2OC)cc1Cl (configuration not stated)", "condition not met"),
    ("COCCNc1ncnc2c1cnn2-c1ccc(Cl)cc1", "condition not met"),
    ("CCOC(=O)NC1(C(F)(F)F)C(=O)NC(C)=C1C#N (configuration not stated)", "condition not met"),
    ("COc1cc(C2C(C(=O)c3sc(C)nc3C)=C(O)C(=O)N2CCN(C)C)cc(OC)c1OC (configuration not stated)", "condition not met"),
    ("CCOC(=O)Cc1[nH]nc2c1C(c1cc(OC)ccc1OC)C(C#N)=C(N)O2 (configuration not stated)", "condition met"),
    ("O=C(c1ccc(-n2cnnn2)cc1)N1CCOCC1", "condition not met"),
    ("O=C(NCCCn1ccnc1)c1cccnc1", "condition met"),
    ("CN1CCN(c2c3c(c(C#N)c4nc5ccccc5n24)CCCC3)CC1", "condition not met"),
    ("CC(O)CNc1nc2c(c(=O)n(C)c(=O)n2C)n1Cc1cccc(C(F)(F)F)c1 (configuration not stated)", "condition not met"),
    ("CCc1nc(NCCN2CCOCC2)c(C#N)c2c1CCCC2", "condition met"),
    ("CC1(C)Cc2c(sc3ncn4nc(-c5ccco5)nc4c23)CO1", "condition met"),
    ("CC1(C)Cc2c(sc3nc(SCC(=O)NCc4ccco4)n(-c4ccccc4)c(=O)c23)CS1", "condition not met"),
    ("COc1ccc(N2C(=O)C3C(C2=O)C2C=CC3C23CC3)c(OC)c1 (configuration not stated)", "condition not met"),
    ("C=CCN1C(=O)CC(C(=O)NC)SC1=Nc1ccc(C(=O)OCC)cc1 (configuration not stated)", "condition met"),
    ("C/C(NC(=O)c1ccccc1F)=C1\\C(=O)C[C@@H]2[C@H]1C2(C)C", "condition met"),
    ("COC(=O)c1cc(Br)c(=O)n(-c2cc(C)on2)c1", "condition not met"),
    ("CC(=O)/C=C(\\C)NCCNc1c(F)c(F)c(CO)c(F)c1F", "condition not met"),
    ("Cc1ccc(C2/C(=C(\\O)c3ccc4c(c3)OCCO4)C(=O)C(=O)N2CCCN(C)C)o1 (configuration not stated)", "condition met"),
    ("CCCCCCOc1ccc(N2C(=O)CC(N3CCN(C(=O)c4ccco4)CC3)C2=O)cc1 (configuration not stated)", "condition not met"),
    ("CCOC(=O)COn1c(=O)c(-c2ccc(OC)c(OC)c2)[n+]([O-])c2ccccc21", "condition not met"),
    ("CCOC(=O)NC(Nc1cc(C)on1)(C(F)(F)F)C(F)(F)F", "condition met"),
]
